This collection of values is drawn from ChEMBL document CHEMBL1128377.

Here, each record is paired with measured IC50 data.
TESTED_TARGET: Potassium voltage-gated channel subfamily A member 3 (Homo sapiens)
Sequence (P22001 whole entry): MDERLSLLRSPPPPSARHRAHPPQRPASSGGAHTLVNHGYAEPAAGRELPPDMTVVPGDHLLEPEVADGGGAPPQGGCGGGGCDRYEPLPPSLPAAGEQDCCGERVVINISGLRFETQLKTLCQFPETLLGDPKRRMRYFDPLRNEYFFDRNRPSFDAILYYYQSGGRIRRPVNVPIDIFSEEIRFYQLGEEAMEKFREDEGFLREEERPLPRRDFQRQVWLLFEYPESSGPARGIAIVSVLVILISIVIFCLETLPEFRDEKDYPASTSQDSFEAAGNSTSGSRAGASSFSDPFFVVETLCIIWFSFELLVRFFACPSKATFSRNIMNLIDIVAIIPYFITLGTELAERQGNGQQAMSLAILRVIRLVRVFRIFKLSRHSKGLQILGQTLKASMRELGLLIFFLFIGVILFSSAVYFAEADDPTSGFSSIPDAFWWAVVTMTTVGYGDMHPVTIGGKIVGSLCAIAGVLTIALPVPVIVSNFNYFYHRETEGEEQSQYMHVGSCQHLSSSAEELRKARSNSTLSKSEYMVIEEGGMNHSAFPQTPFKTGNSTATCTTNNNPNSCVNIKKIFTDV
PROCEDURE_DETAILS: Inhibition of outward potassium currents (IKn) in human T-lymphocyte N-type potassium channels.
Type: functional
MEASURED_PARAMETER: IC50 (nM)

>>> assay_result("CCCCC/N=c1\\ccn(Cc2ccccc2)c2cc(Cl)ccc12")
250
>>> assay_result("CC(C)CCCC(C)/N=c1\\ccn(Cc2ccccc2)c2cc(Cl)ccc12 (stereo unspecified)")
1680
>>> assay_result("Clc1ccc(C/N=c2\\ccn(Cc3ccccc3Cl)c3cc(Cl)ccc23)c(Cl)c1")
259
>>> assay_result("CCCCCC/N=c1\\ccn(Cc2ccccc2Cl)c2cc(Cl)ccc12")
216
>>> assay_result("CCCCC/N=c1\\ccn(Cc2ccc(Cl)cc2)c2ccc(C(F)(F)F)cc12")
213
